# credit: ChEMBL document CHEMBL3286201

- ASSAY_NAME: Selectivity index, ratio of EC50 for mouse J774A1 cells to EC50 for intracellular amastigote stage of Leishmania donovani MHOM/ET/67/L82
- Assay type: toxicity, cell-based, J774.A1
- CONDITIONS: read-out: Ratio EC50
Assign T whenever selectivity ratio does not fall below 10; assign F whenever it does.

// inclusive: selectivity ratio at least 10? input: COc1ccc2c(NCc3ccco3)nc(NC(C)C)nc2c1
T

// inclusive: selectivity ratio at least 10? input: CNc1nc(NCc2ccccc2)nc2ccccc12
T

// inclusive: selectivity ratio at least 10? input: COc1cccc2nc(NC(C)C)nc(NCc3ccco3)c12
T

// inclusive: selectivity ratio at least 10? input: Cc1cccc2nc(NC(C)C)nc(NCc3ccco3)c12
T

// inclusive: selectivity ratio at least 10? input: COc1ccc2nc(NC(C)C)nc(NCc3ccco3)c2c1
T

// inclusive: selectivity ratio at least 10? input: c1ccc(CNc2nc(NCc3ccccc3)c3ccccc3n2)cc1
F

// inclusive: selectivity ratio at least 10? input: CC(C)Nc1nc(NCc2ccco2)c2c(Cl)cccc2n1
T

// inclusive: selectivity ratio at least 10? input: CNc1nc(NCc2ccccc2)c2ccccc2n1
T

// inclusive: selectivity ratio at least 10? input: c1ccc(CNc2nc(Nc3ccccc3)nc3ccccc23)cc1
T

// inclusive: selectivity ratio at least 10? input: c1ccc(CNc2nc(Nc3ccccc3)c3ccccc3n2)cc1
T

// inclusive: selectivity ratio at least 10? input: CC(C)Nc1nc(NCc2ccco2)c2ccc(Cl)cc2n1
T

// inclusive: selectivity ratio at least 10? input: CSCCNc1nc(NC(C)C)nc2ccccc12
F

// inclusive: selectivity ratio at least 10? input: CC(C)Nc1nc(NCc2ccco2)c2ccccc2n1
F

// inclusive: selectivity ratio at least 10? input: CC(C)Nc1nc(NCc2ccco2)c2cc(Cl)ccc2n1
T

====

What permeability was measured for each of the following?
- CONDITIONS: pampa, pH 4
- Description: Passive transcellular permeability of the compound at pH 4 by PAMPA
Reply with just the number (in ×10⁻⁶ cm/s).

Recorded result, CC(C)Nc1nc(NCc2ccco2)c2c(Cl)cccc2n1 , permeability: 169

Recorded result, CCCCNc1nc(NCCCC)c2ccccc2n1 , permeability: 485

Recorded result, OCCNc1nc(NCc2ccco2)c2ccccc2n1 , permeability: 26.4

Recorded result, COc1ccc2c(NCc3ccco3)nc(NC(C)C)nc2c1 , permeability: 59.2

Recorded result, CCOC(=O)CNc1nc(NC(C)C)nc2ccccc12 , permeability: 38.8

Recorded result, FC(F)(F)CNc1nc(NCc2ccco2)c2ccccc2n1 , permeability: 67.7

Recorded result, c1ccc(CNc2nc(Nc3ccccc3)nc3ccccc23)cc1 , permeability: 271

Recorded result, CC(C)Nc1nc(N(C)C)c2ccccc2n1 , permeability: 72.3

Recorded result, CC(C)Nc1nc(NCC(F)(F)F)c2ccccc2n1 , permeability: 19.7

Recorded result, CNc1nc(NCc2ccccc2)nc2ccccc12 , permeability: 57.1

Recorded result, CC(C)Nc1nc(NCc2ccco2)c2ccccc2n1 , permeability: 62.2

Recorded result, c1ccc(CNc2nc(Nc3ccccc3)c3ccccc3n2)cc1 , permeability: 412

Recorded result, COc1cccc2nc(NC(C)C)nc(NCc3ccco3)c12 , permeability: 87

Recorded result, COc1ccc2nc(NC(C)C)nc(NCc3ccco3)c2c1 , permeability: 80.2

Recorded result, COc1cccc2c(NCc3ccco3)nc(NC(C)C)nc12 , permeability: 38.4

Recorded result, Cc1ccc2nc(NC(C)C)nc(NCc3ccco3)c2c1 , permeability: 67.2

Recorded result, Cc1cccc2nc(NC(C)C)nc(NCc3ccco3)c12 , permeability: 45.9

Recorded result, CSCCNc1nc(NC(C)C)nc2ccccc12 , permeability: 28.8

Recorded result, Cc1ccc2c(NCc3ccco3)nc(NC(C)C)nc2c1 , permeability: 67.2

Recorded result, Cc1cccc2c(NCc3ccco3)nc(NC(C)C)nc12 , permeability: 45.9

Recorded result, CCCCNc1nc(NCc2ccccc2)nc2ccccc12 , permeability: 341

Recorded result, CC(C)Nc1nc(NCc2ccco2)c2cc(Cl)ccc2n1 , permeability: 170

Recorded result, CC(C)Nc1nc(NCc2ccco2)c2ccc(Cl)cc2n1 , permeability: 103

Recorded result, CC(C)Nc1nc(NCc2ccco2)c2cccc(Cl)c2n1 , permeability: 67.6
